B1: CAMK2A (parent)
chain: CIQQILEAVLHCHQMGVVHRDLKP

variants of: B1; test: protein stability index of a GFP-peptide fusion (GPS, HEK-293T) (PSI 1-6); higher = more stable; conditions: c terminus: a fixed tail appended;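 note: lentivirally expressed fusions sorted by FACS into six bins by GFP to DsRed ratio, PSI derived from sequencing read proportions per bin multiplied by bin number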
// label = met if protein stability index is not less than 3, otherwise not met

Example cases with answers are listed next.
- sequence_entry: "CIQQIKEAVLHCHQMGVVHRDLKP [L6K]"
  group_label: "not met"
- sequence_entry: "CIQQILEAVLHCHQMGVVHRDLVP [K23V]"
  group_label: "not met"
- sequence_entry: "CIQQIWEAVLHCHQMGVVHRDLKP [L6W]"
  group_label: "not met"
- sequence_entry: "CIQYILEAVLHCHQMGVVHRDLKP [Q4Y]"
  group_label: "not met"
- sequence_entry: "CIQQILEAVLHCHQMGDVHRDLKP [V17D]"
  group_label: "not met"

protein stability index >= 3 for CIQQILEAVLHCIQMGVVHRDLKP [H13I] ?
not met

// query: CIQQILEAVLHCHQEGVVHRDLKP [M15E]
not met

// query: CIQQPLEAVLHCHQMGVVHRDLKP [I5P]
not met

What do you have for CIQQILEAVLHGHQMGVVHRDLKP [C12G] ?
not met

Then this variant: CIQQILETVLHCHQMGVVHRDLKP [A8T]
met

Also CIQQILEAVLHCHQMGVVHRDNKP [L22N] , if possible.
not met
